These data points were gathered from patent US8748428B2.

- Tested on: DB cells
- assay-info: Growth inhibition, CellTiter-Glo, 5 days
- Format: cell-based
- cond: Homo sapiens, 120 h, GC DLBCL, no NFkB mutation, 5 days treatment, read-out: growth inhibitory IC50, DB
endpoint: IC50

[[record]]
compound = "O=C1NC(=O)C(c2c[nH]c3ccccc23)=C1c1nc(N2CCNCC2)nc2ccccc12"
assayed_system = "DB cells"
assay_value = "> 20 µM"


stdin: May I ask what IC50 has been recorded for CN1CCN(c2nc(C3=C(c4c[nH]c5ccccc45)C(=O)NC3=O)c3ccccc3n2)CC1 ?
stdout: > 20 µM

stdin: May I ask what IC50 has been recorded for COc1c(Cl)cc2c([nH]c3cnccc32)c1NC(=O)c1cccnc1C [MLN120B] ?
stdout: > 40 µM

stdin: May I ask what IC50 has been recorded for COCCOCCOc1cccc2c(C3=C(c4c(Cl)ccc5ccc(CN(C)C)cc45)C(=O)NC3=O)c[nH]c12 ?
stdout: > 20 µM

stdin: May I ask what IC50 has been recorded for C[C@@H]1CC(Nc2nccc(-c3c[nH]c4c(F)cccc34)n2)C[C@@H](C)N1 (some centres unmarked) ?
stdout: > 20 µM
